// provenance: paper PMC6282620

# TARGET OR SYSTEM: PfHsp70-x C-terminal truncated version with a missing EEVN motif (Plasmodium falciparum)
# ASSAY TEXT: SPR; PfHsp70-x or PfHsp70-xT immobilised on ProteOn GLC chips as ligands; peptides as analytes at 1.25-20 nM, 50 uL/min; 25 °C; PBS-Tween; no nucleotide
REPORTED PROPERTY: koff (s⁻¹)

BINDER	REPORTED PROPERTY	RECORDED NUMBER
ALLLMYRR [peptide ALLLMYRR]	koff	1.04e-05
NRLLTG [peptide NRLLTG]	koff	8.67e-06
NRNNTG [peptide NRNNTG]	koff	2.79e-08
ANNNMYRR [peptide ANNNMYRR]	koff	1.04e-05
